- Test system: 883617-216-R-J1-PDC complex spheroid viability;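 also: spheroids exposed to compounds for seven days before readout; 100% = DMSO vehicle control viability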
- TEST DESCRIPTION: Anticancer human tumor 883617-216-R-J1-PDC patient-derived bladder carcinoma cell line growth inhibition [POLQ]
- EXPERIMENTAL PARAMETERS: second compound 1 µM; first compound 0.000316 µM; hits give low values
Measured viability, T/C, listed per entry for reference.

MOLECULE	viability, T/C
CC[C@@]1(O)C(=O)OCc2c1cc1n(c2=O)Cc2cc3c(CN(C)C)c(O)ccc3nc2-1 + COC1C(OC(N)=O)C(O)C(Oc2ccc3c(O)c(NC(=O)c4ccc(O)c(CC=C(C)C)c4)c(=O)oc3c2C)OC1(C)C	94.9%
CC[C@@]1(O)C(=O)OCc2c1cc1n(c2=O)Cc2cc3c(CN(C)C)c(O)ccc3nc2-1 + Cc1cccc(N(C)C(=O)C2C(O)CCN2c2nc(C)cc(C(F)(F)F)c2C#N)c1	99.5%
Cn1ncnc1[C@H]1c2n[nH]c(=O)c3cc(F)cc(c23)N[C@@H]1c1ccc(F)cc1 + Nc1ccc(C#CCN(C(=O)Cc2ncc(C(F)(F)F)cc2C(F)(F)F)c2ccc(F)cc2)nn1	91.9%
Cn1ncnc1[C@H]1c2n[nH]c(=O)c3cc(F)cc(c23)N[C@@H]1c1ccc(F)cc1 + COC1C(OC(N)=O)C(O)C(Oc2ccc3c(O)c(NC(=O)c4ccc(O)c(CC=C(C)C)c4)c(=O)oc3c2C)OC1(C)C	95.8%
CC[C@@]1(O)C(=O)OCc2c1cc1n(c2=O)Cc2cc3c(CN(C)C)c(O)ccc3nc2-1 + Nc1ccc(C#CCN(C(=O)Cc2ncc(C(F)(F)F)cc2C(F)(F)F)c2ccc(F)cc2)nn1	90.2%
Cn1ncnc1[C@H]1c2n[nH]c(=O)c3cc(F)cc(c23)N[C@@H]1c1ccc(F)cc1 + Cc1cccc(N(C)C(=O)C2C(O)CCN2c2nc(C)cc(C(F)(F)F)c2C#N)c1	98.1%
